Cited source for all entries: patent US20250120967A1

Molecular target: EPHA8 (Homo sapiens)
Sequence (P29322 28-1005): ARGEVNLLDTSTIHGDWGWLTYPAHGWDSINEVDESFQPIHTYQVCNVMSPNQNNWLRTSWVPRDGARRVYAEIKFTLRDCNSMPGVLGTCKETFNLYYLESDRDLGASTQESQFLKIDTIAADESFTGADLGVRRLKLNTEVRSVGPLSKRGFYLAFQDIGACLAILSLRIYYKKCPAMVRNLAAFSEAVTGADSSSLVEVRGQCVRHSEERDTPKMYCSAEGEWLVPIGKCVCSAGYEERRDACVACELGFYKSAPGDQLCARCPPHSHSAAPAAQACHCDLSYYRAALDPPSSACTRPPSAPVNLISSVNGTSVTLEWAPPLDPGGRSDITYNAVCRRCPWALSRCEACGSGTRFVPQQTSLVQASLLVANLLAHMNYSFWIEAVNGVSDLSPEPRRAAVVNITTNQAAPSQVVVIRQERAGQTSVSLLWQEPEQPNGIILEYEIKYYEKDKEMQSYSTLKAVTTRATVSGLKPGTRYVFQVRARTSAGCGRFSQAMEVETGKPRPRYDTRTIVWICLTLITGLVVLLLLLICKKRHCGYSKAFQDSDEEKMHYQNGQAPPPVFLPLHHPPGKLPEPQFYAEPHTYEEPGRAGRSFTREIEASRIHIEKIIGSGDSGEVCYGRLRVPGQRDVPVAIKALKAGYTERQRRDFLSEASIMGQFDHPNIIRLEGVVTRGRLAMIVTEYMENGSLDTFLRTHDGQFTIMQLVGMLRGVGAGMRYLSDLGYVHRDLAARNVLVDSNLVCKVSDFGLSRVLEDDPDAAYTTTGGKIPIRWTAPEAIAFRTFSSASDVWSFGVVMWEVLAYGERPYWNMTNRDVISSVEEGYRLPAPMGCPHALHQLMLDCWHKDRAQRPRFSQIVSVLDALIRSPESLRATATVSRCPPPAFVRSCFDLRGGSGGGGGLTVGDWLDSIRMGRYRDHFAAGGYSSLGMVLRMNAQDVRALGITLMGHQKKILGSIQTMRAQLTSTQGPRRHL
Assay: Tyrosine kinase inhibition assay
Format: biochemical
Settings: single concentration 1.0 μM, read-out: percent inhibition
Known inhibition at 1 µM of a selection of compounds

compound	unitAbbrev	inhibition at 1 µM
COc1cc2nccc(Oc3ccc(NC(=O)C4(NC(=O)c5ccc(F)cc5)CC4)cc3F)c2cc1OC	%	42
COc1cc2nccc(Oc3ccc(NC(=O)C4(C(=O)Nc5ccc(F)cc5)CC4)cc3F)c2cc1Oc1ccc(N)cc1F	%	100
COc1cc2nccc(Oc3ccc(NC(=O)C4(NC(=O)c5ccc(F)cc5)CC4)cc3F)c2cc1Oc1ccc(N)cc1F	%	76
COc1cc2nccc(Oc3ccc(NC(=O)C4(C(=O)Nc5ccc(F)cc5)CC4)cc3)c2cc1OC [Cabozantinib, reference compound]	%	104
COc1cc2nccc(Oc3ccc(NC(=O)C4(NC(=O)c5ccc(F)cc5)CC4)cc3F)c2cc1Oc1c(F)cc(N)cc1F	%	82

###

Biological target: KIT (Homo sapiens)
Sequence (P10721 26-976): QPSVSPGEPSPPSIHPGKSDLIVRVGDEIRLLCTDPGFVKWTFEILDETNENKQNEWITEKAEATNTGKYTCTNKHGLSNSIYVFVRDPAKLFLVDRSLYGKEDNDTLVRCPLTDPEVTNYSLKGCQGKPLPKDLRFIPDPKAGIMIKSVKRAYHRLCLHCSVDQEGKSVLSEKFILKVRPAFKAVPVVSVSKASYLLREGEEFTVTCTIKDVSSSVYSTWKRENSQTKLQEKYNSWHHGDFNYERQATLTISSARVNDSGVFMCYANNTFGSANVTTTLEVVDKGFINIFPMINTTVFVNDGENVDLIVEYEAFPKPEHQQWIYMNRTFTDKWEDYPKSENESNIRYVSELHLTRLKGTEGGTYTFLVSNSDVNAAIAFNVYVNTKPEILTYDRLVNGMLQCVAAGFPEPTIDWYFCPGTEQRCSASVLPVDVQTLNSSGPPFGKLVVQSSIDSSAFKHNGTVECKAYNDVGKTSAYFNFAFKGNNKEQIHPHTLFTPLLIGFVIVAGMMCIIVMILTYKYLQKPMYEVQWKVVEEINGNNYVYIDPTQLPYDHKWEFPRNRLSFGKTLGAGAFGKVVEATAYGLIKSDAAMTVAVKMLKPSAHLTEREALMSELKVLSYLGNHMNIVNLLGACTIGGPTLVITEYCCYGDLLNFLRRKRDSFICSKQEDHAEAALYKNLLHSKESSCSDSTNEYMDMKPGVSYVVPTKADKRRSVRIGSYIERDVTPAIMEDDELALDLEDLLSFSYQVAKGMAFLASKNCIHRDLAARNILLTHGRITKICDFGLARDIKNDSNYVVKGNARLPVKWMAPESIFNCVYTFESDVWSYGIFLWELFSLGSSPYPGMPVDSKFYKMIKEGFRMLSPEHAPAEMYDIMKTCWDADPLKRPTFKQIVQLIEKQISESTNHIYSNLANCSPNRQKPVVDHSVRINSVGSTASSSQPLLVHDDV
Assay: Tyrosine kinase inhibition assay
Type: biochemical
Settings: single concentration 1.0 μM, read-out: percent inhibition

smilesNotation	inhibition at 1 µM
COc1cc2nccc(Oc3ccc(NC(=O)C4(NC(=O)c5ccc(F)cc5)CC4)cc3F)c2cc1Oc1ccc(N)cc1F	48%
COc1cc2nccc(Oc3ccc(NC(=O)C4(NC(=O)c5ccc(F)cc5)CC4)cc3F)c2cc1OC	33%
COc1cc2nccc(Oc3ccc(NC(=O)C4(NC(=O)c5ccc(F)cc5)CC4)cc3F)c2cc1Oc1c(F)cc(N)cc1F	45%
COc1cc2nccc(Oc3ccc(NC(=O)C4(C(=O)Nc5ccc(F)cc5)CC4)cc3F)c2cc1Oc1ccc(N)cc1F	51%
